Study Target: Estrogen receptor (Homo sapiens) (UniProt P03372)
Sequence (P03372 whole entry, looked up): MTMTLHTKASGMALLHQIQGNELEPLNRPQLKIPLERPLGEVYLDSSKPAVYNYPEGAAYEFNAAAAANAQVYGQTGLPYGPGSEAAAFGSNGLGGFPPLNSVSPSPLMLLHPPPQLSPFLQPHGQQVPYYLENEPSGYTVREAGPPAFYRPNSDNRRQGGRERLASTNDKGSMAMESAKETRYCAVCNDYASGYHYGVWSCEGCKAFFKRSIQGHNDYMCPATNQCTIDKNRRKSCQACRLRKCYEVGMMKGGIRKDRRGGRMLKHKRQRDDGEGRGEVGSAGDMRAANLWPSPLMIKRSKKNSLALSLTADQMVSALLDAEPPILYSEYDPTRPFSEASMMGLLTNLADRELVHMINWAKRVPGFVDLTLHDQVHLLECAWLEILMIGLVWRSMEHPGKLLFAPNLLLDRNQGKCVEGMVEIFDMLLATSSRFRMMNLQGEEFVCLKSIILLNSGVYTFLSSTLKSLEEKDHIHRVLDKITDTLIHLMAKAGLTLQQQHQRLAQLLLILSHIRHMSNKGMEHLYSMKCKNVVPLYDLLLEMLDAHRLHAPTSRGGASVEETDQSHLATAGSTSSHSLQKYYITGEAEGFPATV
Method Notes: qHTS assay for small molecule antagonists of estrogen receptor alpha signaling (AID 588513); further: on the % scale 0 is the no-effect control and ±100 the full control effect
Experimental Setup: ER-alpha-UAS-bla HEK293, beta-lactamase ratio, antagonist mode; series mostly up to 76.9 µM
Protocol: NIH Chemical Genomics Center [NCGC] U.S. Environmental Protection Agency [EPA] National Institutes of Environmental Health Sciences [NIEHS] National Toxicology Program [NTP] […] Using a beta-lactamase reporter-gene under control of the ER response element, a cell-based assay [ER-alpha-UAS-bla GripTiteTM cell-Based Assay from Invitrogen] was used to measure ER-alpha signaling pathway in antagonist mode. […] Library compounds were measured for their ability to inhibit the reporter gene activity. […]
Inconclusive results are not listed. Activity calls are given as the source filed them. The call rests on the fitted dose curve; in most records, active means well fitted curve in the direction sought with a large enough effect in the signal ratio, with a control signal flat (not every such curve was filed as active); inconclusive means small, poorly fitted or top-dose-only effect, or effect the other way, or a change in a side signal; inactive means no such curve, though single readings can be large or run the other way; the % refers to the signal ratio.
Your answer must be one of the following: active, inactive

Record excerpt, results attached:
>>> label_value("C=CCOC(=O)c1ccccc1C(=O)OCC=C")
"inactive"
>>> label_value("COc1cc(/C=C/c2ccccc2)oc(=O)c1")
"inactive"
>>> label_value("Cc1ccccc1C")
"inactive"

Asked: Hi, sorry to bother you, what did the test record for O=C1c2ccccc2C(=O)C1c1ccc2ccccc2n1 ?
Given back: inactive

Asked: Then C=CC(=C)CCC=C(C)C ?
Given back: inactive

Asked: Then CCO[Si](CCCN)(OCC)OCC ?
Given back: inactive

Asked: Then Cc1ccc([N+](=O)[O-])cc1N ?
Given back: inactive

Asked: Then CC1=CC(C)(C)Nc2ccccc21 ?
Given back: inactive

Asked: Then ClCCCl ?
Given back: inactive

Asked: Then CC1=C2[C@H](/C=C(\C)C(=O)O)CC[C@@H](C)[C@H]2CC1 ?
Given back: inactive

###

Study Target: Rap guanine nucleotide exchange factor 4 (Homo sapiens) (UniProt Q8WZA2)
Sequence (Q8WZA2 whole entry, looked up): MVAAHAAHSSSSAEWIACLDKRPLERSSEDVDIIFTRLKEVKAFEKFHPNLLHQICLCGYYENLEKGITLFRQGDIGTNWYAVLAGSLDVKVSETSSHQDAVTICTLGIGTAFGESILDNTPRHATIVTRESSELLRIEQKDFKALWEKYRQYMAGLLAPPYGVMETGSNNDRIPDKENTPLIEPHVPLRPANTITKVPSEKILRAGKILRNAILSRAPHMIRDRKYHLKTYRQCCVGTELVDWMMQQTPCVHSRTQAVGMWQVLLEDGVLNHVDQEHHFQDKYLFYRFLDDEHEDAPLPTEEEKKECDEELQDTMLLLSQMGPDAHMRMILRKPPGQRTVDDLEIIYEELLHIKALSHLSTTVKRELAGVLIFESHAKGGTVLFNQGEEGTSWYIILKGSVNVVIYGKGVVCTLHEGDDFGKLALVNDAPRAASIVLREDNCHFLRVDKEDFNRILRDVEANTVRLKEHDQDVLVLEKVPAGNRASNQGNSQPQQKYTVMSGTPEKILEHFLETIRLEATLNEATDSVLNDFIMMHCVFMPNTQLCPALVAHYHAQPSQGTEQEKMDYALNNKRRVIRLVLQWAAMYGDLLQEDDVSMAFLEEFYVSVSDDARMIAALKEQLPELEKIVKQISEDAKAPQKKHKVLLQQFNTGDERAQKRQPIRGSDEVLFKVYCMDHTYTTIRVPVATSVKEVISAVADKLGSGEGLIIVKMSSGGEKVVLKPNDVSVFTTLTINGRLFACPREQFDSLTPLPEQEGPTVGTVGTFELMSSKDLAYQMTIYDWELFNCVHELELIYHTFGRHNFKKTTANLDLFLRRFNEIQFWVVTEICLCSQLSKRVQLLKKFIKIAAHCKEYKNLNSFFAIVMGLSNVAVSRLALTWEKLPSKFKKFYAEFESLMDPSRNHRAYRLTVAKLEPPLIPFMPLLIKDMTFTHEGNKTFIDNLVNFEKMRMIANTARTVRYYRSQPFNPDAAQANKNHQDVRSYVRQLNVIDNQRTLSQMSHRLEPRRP
Method Notes: Confirmatory qHTS for antagonist of cAMP-regulated guanine nucleotide exchange factor 4 (EPAC2) (AID 1645885); further: nearly all actives have a fitted effect of over 25% in size; further: potency means the concentration at half of the fitted maximal effect
Experimental Setup: EPAC2 Rap1B-BODIPY-GDP exchange fluorescence, biochemical; series mostly up to 12.7 µM
Records with an inconclusive call do not appear. Activity calls are given as the source filed them. Calls follow the shape of the dose curve; as a rule, active = well fitted inhibition curve with a large enough effect; inconclusive = small, poorly fitted or top-dose-only effect; inactive = no such curve, though single readings can be large or run the other way.
Quantity Measured: Potency

>>> reported_value("O=C(Nc1ccccc1)C1=C(O)CC(c2ccc(Cl)cc2)N2CCN=C12 (stereo not drawn)")
"inactive"
>>> reported_value("Cc1ccc(CNc2cc(C)nc3nc(-c4ccc(C)cc4)nn23)cc1")
"inactive"
>>> reported_value("O=C(/C=C/c1ccc(N2CCOCC2)cc1)c1ccccc1")
"inactive"
>>> reported_value("NC(=O)[C@H]1CC2(CC(c3cccc(NC(=O)[C@H]4CCC(=O)N4)c3)=NO2)CN1C(=O)c1ccccc1 (stereo partly drawn)")
"inactive"
>>> reported_value("CCN(CC)c1ccc(/C=c2\\sc3nc4ccccc4n3c2=O)c(O)c1")
"inactive"
>>> reported_value("CCCc1nn2c(=O)cc(COC(=O)c3ccc(NC(=O)COc4ccccc4F)cc3)nc2s1")
"inactive"
>>> reported_value("CCc1nc(Oc2cccc(F)c2)c2oc3ccccc3c2n1")
"inactive"
>>> reported_value("COc1ccccc1Cc1c(-c2ccco2)nc2cc(C)c(Br)c(C)n12")
"inactive"
>>> reported_value("COC(=O)c1c(NC(=O)c2ccc(S(=O)(=O)N(C)C3CCCCC3)cc2)sc2c1CCN(C)C2")
"inactive"
>>> reported_value("Cc1ccc(CNC(=O)c2c[nH]n3c(=O)c(Cc4ccc(F)cc4Cl)c(C)nc23)cc1")
"inactive"

Asked: I'd like to know its Potency. The compound in question is Cc1ccc(CSC2=NCCN2S(=O)(=O)c2ccc(F)cc2)cc1
Given back: inactive

Asked: Then COC(=O)c1sc(S(=O)(=O)N2CCCCC2C)c(C(=O)OC)c1C (stereo not drawn) ?
Given back: 53.6 µM (active)

Asked: Then Oc1ccc(NCc2cccc(OCc3ccccc3)c2)cc1 ?
Given back: inactive

Asked: Then CCCN1C(=O)c2ccccc2NC1c1ccc(OC)c(CSc2ccccn2)c1 (stereo not drawn) ?
Given back: inactive

Asked: Then Cc1ccc(C(=O)Cc2ccccc2)c(O)c1 ?
Given back: inactive

Asked: Then COc1ccc(NC(=O)CSc2sc3c(O)cc(=O)[nH]c3c2C#N)c(OC)c1 ?
Given back: inactive

Asked: Then COc1ccc(NC2c3ccccc3C(=O)N2c2ccccn2)cc1Cl (stereo not drawn) ?
Given back: inactive

Asked: Then O=C(NC1CCC(O)CC1)c1ccc(S(=O)(=O)NCc2ccco2)cc1 (stereo not drawn) ?
Given back: inactive

###

System: CP194
Method Notes: qHTS profiling for inhibitors of Plasmodium falciparum proliferation (AID 504749);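 further: 0% = DMSO vehicle and full inhibition = artemisinin control; nearly all actives have a fitted effect of over 60% in size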
Experimental Setup: P. falciparum in erythrocytes, SYBR Green DNA, 72 h; series mostly up to 28.7 µM
Inconclusive results are not listed. The source made the active and inactive calls. Calls follow the shape of the dose curve; as a rule, active = well fitted inhibition curve with a large enough effect; inconclusive = small, poorly fitted or top-dose-only effect; inactive = flat fitted curve, though single readings scatter. Bridge positions count the residues as written; N and C are the ends. Square brackets hold non-standard residues; d marks the D form. Peptide text beside a SMILES is read from it. * marks the point of attachment. Octanoyl(6-Me) = CCC(C)CCCCC(=O)*; Dab = NCC[CH](N)C(=O)O
Your answer must be one of the following: yes (active), no (inactive)

>>> label_value("CCC(C)CCCCC(=O)NC(CCN)C(=O)NC(C(=O)NC(CCN)C(=O)NC1CCNC(=O)C(C(C)O)NC(=O)C(CCN)NC(=O)C(CCN)NC(=O)C(CC(C)C)NC(=O)C(Cc2ccccc2)NC(=O)C(CCN)NC1=O)C(C)O (stereo not drawn) ({Octanoyl(6-Me)}-[Dab]T[Dab][Dab][Dab]FL[Dab][Dab]T; lactam 4-C; configuration not given here)")
"no"

Asked: Hi, sorry to bother you, what did the test record for CN(C)CCCCCCN(C)C ?
Given back: no

Asked: Then CC1(C)S[C@@H]2[C@H](NC(=O)COc3ccccc3)C(=O)N2[C@H]1C(=O)O ?
Given back: no

###

Study Target: Cytochrome P450 1A2 (Homo sapiens) (UniProt P05177)
Sequence (P05177 whole entry, looked up): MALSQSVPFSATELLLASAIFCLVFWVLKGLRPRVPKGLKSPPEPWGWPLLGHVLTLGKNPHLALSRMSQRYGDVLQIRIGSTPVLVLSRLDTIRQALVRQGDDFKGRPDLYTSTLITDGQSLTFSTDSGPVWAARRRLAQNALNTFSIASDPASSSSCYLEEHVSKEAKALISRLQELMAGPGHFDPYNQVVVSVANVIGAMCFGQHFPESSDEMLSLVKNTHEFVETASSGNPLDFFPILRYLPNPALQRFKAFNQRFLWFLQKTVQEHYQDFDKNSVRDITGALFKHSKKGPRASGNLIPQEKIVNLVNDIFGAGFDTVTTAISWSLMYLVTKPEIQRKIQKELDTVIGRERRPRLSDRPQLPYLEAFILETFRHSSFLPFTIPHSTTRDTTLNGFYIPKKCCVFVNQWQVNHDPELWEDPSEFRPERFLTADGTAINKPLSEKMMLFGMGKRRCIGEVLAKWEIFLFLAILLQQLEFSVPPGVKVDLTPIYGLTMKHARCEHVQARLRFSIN
Method Notes: p450-cyp1a2 (AID 410); further: potency means the concentration at half of the fitted maximal effect
Experimental Setup: recombinant CYP1A2, luciferin-ME demethylation, luminescence; series mostly up to 57 µM
Inconclusive results are not listed. The source made the active and inactive calls. Calls follow the shape of the full dose curve.
Quantity Measured: Potency

Some solved entries appear below for comparison.
>>> reported_value("Clc1ccccc1-c1nc(Nc2ccncc2)c2ccccc2n1")
"0.501 µM (active)"
>>> reported_value("CN(C)C(=O)c1ccc(-c2nc(Nc3ccccc3)c3ccccc3n2)cc1")
"0.398 µM (active)"
>>> reported_value("COc1cccc(Cn2c(=O)c(CCc3ccccc3)nc3cnc(N(C)C)nc32)c1")
"15.8 µM (active)"
>>> reported_value("c1ccc2c(NCCN3CCOCC3)nc(-c3ccoc3)nc2c1")
"5.01 µM (active)"
>>> reported_value("Cc1cnc(CNc2ncnc3ccc(-c4ccc(N(C)C)cc4)cc23)cn1")
"1 µM (active)"

Asked: I'd like to know its Potency. The compound in question is Clc1ccccc1-c1ccc2ncnc(NCCN3CCOCC3)c2c1
Given back: 5.01 µM (active)

Asked: Then CCNc1ncc2nc(CCc3ccccc3)c(=O)n(CCC#N)c2n1 ?
Given back: 3.98 µM (active)

Asked: Then CN1CCN(c2ncc3nc(-c4ccccc4)c(=O)n(Cc4cccs4)c3n2)CC1 ?
Given back: 15.8 µM (active)

Asked: Then N#Cc1cccc(-c2ccc3ncnc(NCc4cccs4)c3c2)c1 ?
Given back: 0.1 µM (active)

Asked: Then Cc1cccc(CNc2ncncc2-c2ccccc2C)c1 ?
Given back: 2.51 µM (active)

Asked: Then COc1ccccc1CNc1ncnc2ccc(-c3ccc(C(=O)N(C)C)cc3)cc12 ?
Given back: 12.6 µM (active)

###

Catalogue of max response readings, one per entry.
Method Notes: qHTS assay for small molecule agonists of the antioxidant response element (ARE) signaling pathway measured by Nrf2-dependant transcriptional activity - cell viability counter screen (AID 720653); further: on the % scale 0 is the no-effect control and ±100 the full control effect
Experimental Setup: ARE-bla HepG2 viability, CellTiter-Glo ATP luminescence, 16 h; active compounds read low
Results filed as inconclusive are left out. Active and inactive are the calls of the source. The call rests on the fitted dose curve; in most records, active means well fitted cell-killing curve with a large enough effect in the repeat runs; inconclusive means weak or mixed curves; inactive means flat fitted curve, though single readings scatter.

>>> reported_value("COc1cc(/C=C/c2ccccc2)oc(=O)c1")
"-6.81% (inactive)"
>>> reported_value("CC1=C2[C@H](/C=C(\\C)C(=O)O)CC[C@@H](C)[C@H]2CC1")
"-0.329% (inactive)"
>>> reported_value("c1ccccc1")
"-0.292% (inactive) [middle of 4 runs]"
>>> reported_value("O[C@@H]([C@H](O)[C@@H](O)CBr)[C@@H](O)CBr")
"2.11% (inactive)"
>>> reported_value("C/C=C\\c1ccc(OC)cc1")
"-0.534% (inactive)"
>>> reported_value("CN(C)CCCCCCN(C)C")
"1.08% (inactive)"

Asked: I'd like to know its max response. The compound in question is C1OCOCO1
Given back: -3.94% (inactive)

Asked: Then COc1ccc(/C=C/c2cc(OC)cc(=O)o2)cc1 ?
Given back: 11.1% (inactive)

Asked: Then c1ccc2scnc2c1 ?
Given back: -3.11% (inactive)
